Target: Tag-xPSM (Homo sapiens, UniProt Q04609)
Construct: made in house; host or cells: Sf-9 insect cells infected with recombinant baculovirus; protein harvested from the media
Sequence (Q04609 44-750 limits assumed): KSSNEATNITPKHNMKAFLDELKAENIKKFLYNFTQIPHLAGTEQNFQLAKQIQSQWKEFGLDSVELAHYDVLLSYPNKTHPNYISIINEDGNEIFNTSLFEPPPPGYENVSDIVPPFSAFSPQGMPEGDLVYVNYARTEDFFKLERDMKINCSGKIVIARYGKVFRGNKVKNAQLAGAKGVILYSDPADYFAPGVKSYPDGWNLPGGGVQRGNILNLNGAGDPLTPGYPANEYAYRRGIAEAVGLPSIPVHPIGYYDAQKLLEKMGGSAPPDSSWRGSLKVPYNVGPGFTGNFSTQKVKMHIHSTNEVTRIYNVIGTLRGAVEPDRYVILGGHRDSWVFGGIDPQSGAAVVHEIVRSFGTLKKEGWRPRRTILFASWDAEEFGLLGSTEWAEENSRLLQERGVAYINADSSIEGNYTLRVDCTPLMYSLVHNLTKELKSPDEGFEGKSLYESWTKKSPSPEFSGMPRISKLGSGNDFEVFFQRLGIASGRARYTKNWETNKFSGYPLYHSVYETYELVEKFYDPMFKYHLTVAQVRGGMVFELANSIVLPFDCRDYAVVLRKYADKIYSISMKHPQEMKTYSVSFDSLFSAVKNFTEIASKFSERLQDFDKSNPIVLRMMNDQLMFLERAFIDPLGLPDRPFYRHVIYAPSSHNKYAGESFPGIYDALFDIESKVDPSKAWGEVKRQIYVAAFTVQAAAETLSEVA
Experiment: Tag-xPSM phage display selection (agarose/cellulose), sequencing of selected phage
Type: binding
Settings: Agarose
quantity.kind: Number of times sequence was found, Round 4

> print(dat)
            record.sequence                         target.or.system  experimental.value
1  CTNSNMHHC [SEQ ID NO:22]  Tag-xPSM (Homo sapiens, UniProt Q04609)                 0/0
2  CTPLSPRYC [SEQ ID NO:12]  Tag-xPSM (Homo sapiens, UniProt Q04609)                   0
3  CQTPYDLRC [SEQ ID NO:10]  Tag-xPSM (Homo sapiens, UniProt Q04609)                 0/0

I am curious: what Number of times sequence was found, Round 4 value has been reported for CLKSHSHQC [SEQ ID NO:15] ?
0

Also need CLSTTISYC [SEQ ID NO:21] , thanks.
0

Queued: CSTRAPHLC [SEQ ID NO:5]
0/0

For CAPNKYKHC [SEQ ID NO:11] then?
1

Please do the same for CGLPTRTAC [SEQ ID NO:16] as well.
0

Then this sequence: CDAVRYPVC [SEQ ID NO:20]
0

Another sequence: CTITSKRTC [SEQ ID NO:2]
3/3

What do you have for CHTSLKTHC [SEQ ID NO:14] ?
0

Would you kindly repeat that for CQKHHNYLC [SEQ ID NO:1] ?
0/0
